experiment: NCI Yeast Anticancer Drug Screen. Data for the sgs1 mgt1 strain (AID 161);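 further: 0% = growth of cultures given vehicle only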; settings: S. cerevisiae sgs1 mgt1 strain, at 50.0 µM, active compounds read high
Compounds without any hit were thinned out: in the full panel of roughly 79,000, 15% have a hit. Calls of active or inactive are those of the source. No stated cut-off is given here; in the data, active means growth inhibition above about 70%; inactive means the rest.
result.type: growth inhibition

Study these solved cases before continuing.
compound: Nc1nc(C(=O)O)c(N=Nc2ccccc2)c(=O)[nH]1
result.type: growth inhibition
experimental.value: 7.35% (inactive)

compound: CC/C(C)=C1/CC(C)(C)N=C1C
result.type: growth inhibition
experimental.value: -10% (inactive)

compound: CCCCOC(=O)CNC(=O)OC(C)(C)C
result.type: growth inhibition
experimental.value: -10.1% (inactive)

So what's the measured growth inhibition for this one? O=C1CC2(CCN(Cc3ccccc3)CC2)C(=O)N1N1CCCCC1
57.8% (inactive)
